Where these numbers come from: patent US20240391881A1

measuredTarget: NLRP3 inflammasomes (Homo sapiens)
Construct: endogenous in cells
Sequence (Q96P20 whole entry): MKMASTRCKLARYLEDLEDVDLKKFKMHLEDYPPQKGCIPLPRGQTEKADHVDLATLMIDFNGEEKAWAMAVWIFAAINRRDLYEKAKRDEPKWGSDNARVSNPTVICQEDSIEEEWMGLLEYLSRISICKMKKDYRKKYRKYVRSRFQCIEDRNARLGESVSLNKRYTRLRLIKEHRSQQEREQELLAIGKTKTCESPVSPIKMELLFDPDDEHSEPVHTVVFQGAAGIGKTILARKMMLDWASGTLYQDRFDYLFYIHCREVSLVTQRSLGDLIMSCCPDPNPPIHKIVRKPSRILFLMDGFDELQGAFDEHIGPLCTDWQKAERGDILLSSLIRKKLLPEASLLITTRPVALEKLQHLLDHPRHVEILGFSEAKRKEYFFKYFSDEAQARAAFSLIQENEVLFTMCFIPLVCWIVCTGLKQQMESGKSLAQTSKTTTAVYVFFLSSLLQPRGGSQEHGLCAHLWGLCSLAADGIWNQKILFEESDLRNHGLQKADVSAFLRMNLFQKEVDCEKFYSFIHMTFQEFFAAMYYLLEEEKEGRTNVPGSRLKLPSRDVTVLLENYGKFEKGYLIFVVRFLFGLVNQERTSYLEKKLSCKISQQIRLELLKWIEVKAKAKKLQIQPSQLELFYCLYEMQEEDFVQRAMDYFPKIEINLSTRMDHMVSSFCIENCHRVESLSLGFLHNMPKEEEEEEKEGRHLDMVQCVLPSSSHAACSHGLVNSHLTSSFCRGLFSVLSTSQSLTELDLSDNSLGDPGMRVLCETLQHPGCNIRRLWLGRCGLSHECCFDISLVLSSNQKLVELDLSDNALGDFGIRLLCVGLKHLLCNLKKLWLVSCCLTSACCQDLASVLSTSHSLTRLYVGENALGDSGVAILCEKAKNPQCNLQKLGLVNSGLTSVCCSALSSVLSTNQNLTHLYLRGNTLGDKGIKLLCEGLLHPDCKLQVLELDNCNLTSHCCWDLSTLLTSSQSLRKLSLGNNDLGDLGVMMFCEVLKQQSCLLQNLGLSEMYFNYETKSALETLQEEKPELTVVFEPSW
experimentalProtocol: THP-1 pyroptosis test (cell pyroptosis test)
testParameters: THP-1 cells differentiated with PMA, LPS stimulation, 10 μM nigericin, drug 0.001-10 μM, MTT absorbance 562 nm
pEC50: −log10 of the molar value.
resultType: pEC50

Quick one: give me pEC50 for each item below, same order please.
1. CN1CCC[C@@H](Nc2nnc(-c3ccc(C(F)(F)F)cc3O)c3cc(P(C)(C)=O)ccc23)C1
2. Oc1cc(C(F)(F)F)ccc1-c1nnc(N[C@@H]2CCc3ncccc32)c2ccccc12

Ans.
["6.00 to 6.30", "7.00 to 7.70"]

Quick one: give me pEC50 for each item below, same order please.
1. Cn1cnc2c(NCCN3CCOCC3)nnc(-c3ccc(F)cc3O)c21
2. CCN1CCC[C@H]1CNc1nnc(-c2ccc(C(F)(F)F)cc2O)c2ccccc12
3. CN1CCC[C@@H](Nc2nnc(-c3ccccc3O)c3ccccc23)C1
4. Cn1cnc2c(N[C@H]3CCCc4ncccc43)nnc(-c3ccc(C(F)(F)F)cc3O)c21

Ans.
< 6.00
6.30 to 7.00
6.00 to 6.30
< 6.00
